Test system: MDA-MB-361
protocol.details: cells
Type: functional, cell-based
setup.conditions: Homo sapiens
Below, each entry is listed alongside its reported IC50.

Please review the entries below; each comes with its answer.
> print(dat)
                                   molecule  reported.value
1     Cn1cc(/C=C2\C(=O)Nc3cccnc32)c2ccccc21       > 2000 nM
2  CCCS(=O)(=O)Nc1ccc(F)c(C(=O)c2c[nH]c3ncc(Cl)cc23)c1F [PLX-4720]      > 10000 nM
3  COc1cc(Nc2c(C#N)cnc3cc(OCCCN4CCN(C)CC4)c(OC)cc23)c(Cl)cc1Cl [BOSUTINIB]       > 2000 nM

Proceed to the following item.
Task: What value of IC50 on MDA-MB-361 does "O=c1cc(N2CCOCC2)oc2c(-c3cccc4c3sc3ccccc34)cccc12" have?
Output: > 2000 nM

* * *

Below, each entry is listed alongside its reported IC50.
Tested on: GI-1;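 note: growth inhibition of human GI-1 cells, measured with a cell viability readout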
protocol.details: cells
Assay type: functional, cell-based
setup.conditions: Homo sapiens
Description: SANGER: Inhibition of human GI-1 cell growth in a cell viability assay.

Please review the entries below; each comes with its answer.
> print(dat)
                                   compound  reported.value
1  COc1cc(C)c(Sc2cnc(NC(=O)c3ccc(CNC(C)C(C)(C)C)cc3)s2)cc1C(=O)N1CCN(C(C)=O)CC1 (stereo not given)       > 10.2 µM
2        C/C(O)=C(\C#N)C(=O)Nc1cc(Br)ccc1Br         > 16 µM
3  CC(=O)c1c(C)c2cnc(Nc3ccc(N4CCNCC4)cn3)nc2n(C2CCCC2)c1=O [PALBOCICLIB]          > 4 µM

Task: For the compound "O=c1cc(N2CCOCC2)oc2c(-c3cccc4c3sc3ccccc34)cccc12" , what IC50 is on record?
Output: > 2 µM

Task: For the compound Cc1nc(Nc2ncc(C(=O)Nc3c(C)cccc3Cl)s2)cc(N2CCN(CCO)CC2)n1 [DASATINIB] , what IC50 is on record?
Output: > 1.28 µM

* * *

Below, each entry is listed alongside its reported pIC50.
Tested on: SAS;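 note: growth inhibition of SAS cells, read out with a cell viability assay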
protocol.details: cells
Type: functional, cell-based
setup.conditions: Homo sapiens
Description: SANGER: Inhibition of human SAS cell growth in a cell viability assay.
pIC50: −log10 of the molar value.

Please review the entries below; each comes with its answer.
> print(dat)
                            chemical.smiles  measurement.target  readout.type  reported.value
1  O=c1[nH]c2ccccc2n1C1CCN(Cc2ccc(-c3nc4cc5[nH]cnc5cc4nc3-c3ccccc3)cc2)CC1                 SAS         pIC50          < 5.59
2     Cn1cc(/C=C2\C(=O)Nc3cccnc32)c2ccccc21                 SAS         pIC50          < 5.70

Proceed to the following item.
Task: For the molecule "O=c1cc(N2CCOCC2)oc2c(-c3cccc4c3sc3ccccc34)cccc12" , what pIC50 is on record?
Output: < 5.70

* * *

Test system: MOLT-4
protocol.details: cells
Assay type: functional, cell-based
setup.conditions: Homo sapiens
Description: SANGER: Inhibition of human MOLT-4 cell growth in a cell viability assay.
pIC50: −log10 of the molar value.
Below, each entry is listed alongside its reported pIC50.

> print(dat)
                                   compound  measurement.target  reported.value
1  CCCS(=O)(=O)Nc1ccc(F)c(C(=O)c2c[nH]c3ncc(Cl)cc23)c1F [PLX-4720]              MOLT-4          < 5.00
2  O=c1cc(N2CCOCC2)oc2c(-c3cccc4c3sc3ccccc34)cccc12              MOLT-4          < 5.70

Proceed to the following item.
Task: For the compound "C/C(O)=C(\C#N)C(=O)Nc1cc(Br)ccc1Br" , what pIC50 is on record?
Output: < 4.80

* * *

Below, each entry is listed alongside its reported IC50.
Test system: NCI-H727
protocol.details: cells
Type: functional, cell-based
setup.conditions: Homo sapiens
Description: SANGER: Inhibition of human NCI-H727 cell growth in a cell viability assay.

> print(dat)
                            chemical.smiles  reported.value
1  CC(=O)c1c(C)c2cnc(Nc3ccc(N4CCNCC4)cn3)nc2n(C2CCCC2)c1=O          > 4 µM
2  O=c1[nH]c2ccccc2n1C1CCN(Cc2ccc(-c3nc4cc5[nH]cnc5cc4nc3-c3ccccc3)cc2)CC1       > 2.56 µM
3  COc1cc(Nc2c(C#N)cnc3cc(OCCCN4CCN(C)CC4)c(OC)cc23)c(Cl)cc1Cl          > 2 µM

Task: For the compound "C/C(O)=C(\C#N)C(=O)Nc1cc(Br)ccc1Br" , what IC50 is on record?
Output: > 16 µM

* * *

System: Calu-6;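 note: growth of human Calu-6 cells, read out by a cell viability assay, IC50 marking inhibition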
protocol.details: cells
Type: functional, cell-based
setup.conditions: Homo sapiens
Description: SANGER: Inhibition of human Calu-6 cell growth in a cell viability assay.
readout.type: IC50

Please review the entries below; each comes with its answer.
> print(dat)
                            chemical.smiles  reported.value
1  Cn1c(=O)n(-c2ccc(C(C)(C)C#N)cc2)c2c3cc(-c4cnc5ccccc5c4)ccc3ncc21       > 2000 nM
2  O=c1cc(N2CCOCC2)oc2c(-c3cccc4c3sc3ccccc34)cccc12       > 2000 nM

Proceed to the following item.
Task: For the compound "Cc1nc(Nc2ncc(C(=O)Nc3c(C)cccc3Cl)s2)cc(N2CCN(CCO)CC2)n1" , what IC50 is on record?
Output: > 1280 nM

* * *

System: BFTC-909
protocol.details: cells
Type: functional, cell-based
setup.conditions: Homo sapiens
Description: SANGER: Inhibition of human BFTC-909 cell growth in a cell viability assay.
pIC50: −log10 of the molar value.
readout.type: pIC50

Please review the entries below; each comes with its answer.
> print(dat)
                            chemical.smiles  readout.type  reported.value
1  N#C/C(=C1/Nc2ccccc2S1)c1ccnc(NCCc2cccnc2)n1         pIC50          < 5.10
2  COc1cc(Nc2c(C#N)cnc3cc(OCCCN4CCN(C)CC4)c(OC)cc23)c(Cl)cc1Cl         pIC50          < 5.70

Task: What value of pIC50 on BFTC-909 does "O=c1cc(N2CCOCC2)oc2c(-c3cccc4c3sc3ccccc34)cccc12" have?
Output: < 5.70

* * *

Tested on: OS-RC-2;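 note: growth inhibition of human OS-RC-2 cells, measured by a cell viability assay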
protocol.details: cells
Type: functional, cell-based
setup.conditions: Homo sapiens
Description: SANGER: Inhibition of human OS-RC-2 cell growth in a cell viability assay.
Below, each entry is listed alongside its reported IC50.

> print(dat)
                                   molecule  measurement.target  reported.value
1  CCNc1cc(N[C@H]2CC[C@@H](O)CC2)nc(Nc2ccc3c(ccn3Cc3ccccc3)c2)n1             OS-RC-2       > 5.12 µM
2  CC(O)(CS(=O)(=O)c1ccc(F)cc1)C(=O)Nc1ccc(C#N)c(C(F)(F)F)c1 (centres undefined) [BICALUTAMIDE]             OS-RC-2       > 1.02 µM
3  O=c1[nH]c2ccccc2n1C1CCN(Cc2ccc(-c3nc4cc5[nH]cnc5cc4nc3-c3ccccc3)cc2)CC1             OS-RC-2       > 2.56 µM

Proceed to the following item.
Task: For the molecule "C/C(O)=C(\C#N)C(=O)Nc1cc(Br)ccc1Br" , what IC50 is on record?
Output: > 16 µM

* * *

Test system: HT-1080
protocol.details: cells
Format: functional, cell-based
setup.conditions: Homo sapiens
Description: SANGER: Inhibition of human HT-1080 cell growth in a cell viability assay.
Below, each entry is listed alongside its reported pIC50.
Scale: pIC50 equals -log10([C]), with [C] in mol/L.

> print(dat)
                            chemical.smiles  reported.value
1  CO[C@@]12[C@H](COC(N)=O)C3=C(C(=O)C(C)=C(N)C3=O)N1C[C@@H]1N[C@@H]12            6.45
2  Fc1cc(-c2cc[nH]/c(=N/c3ccc(-n4cnc(N5CCOCC5)n4)cc3)n2)cc(N2CCOCC2)c1            6.37

Proceed to the following item.
Task: What value of pIC50 on HT-1080 does "C[C@]12O[C@H](C[C@]1(O)CO)n1c3ccccc3c3c4c(c5c6ccccc6n2c5c31)CNC4=O" have?
Output: 7.39

* * *

Tested on: ACN;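 note: growth inhibition of the human ACN cell line, read out via cell viability testing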
protocol.details: cells
Assay type: functional, cell-based
setup.conditions: Homo sapiens
Description: SANGER: Inhibition of human ACN cell growth in a cell viability assay.
readout.type: IC50

> print(dat)
                                   compound  readout.type  reported.value
1  N#C/C(=C1/Nc2ccccc2S1)c1ccnc(NCCc2cccnc2)n1          IC50          > 8 µM
2  CCn1c(-c2nonc2N)nc2cnc(Oc3cccc(NC(=O)c4ccc(OCCN5CCOCC5)cc4)c3)cc21 [GSK-269962A]          IC50        > 2.5 µM

Proceed to the following item.
Task: For the compound COc1cc(C)c(Sc2cnc(NC(=O)c3ccc(CNC(C)C(C)(C)C)cc3)s2)cc1C(=O)N1CCN(C(C)=O)CC1 (stereo not drawn) , what IC50 is on record?
Output: > 10.2 µM

These measurements were taken from ChEMBL document CHEMBL1201861.
